# measured target: human ALK2 R206H (Homo sapiens, UniProt Q04771, R206H)
# measurement protocol: Cell-based ALK2-R206H cell activity assay (Smad1-Ser463/Ser465 phosphorylation by AlphaLISA in HEK293-ALK2-R206H cells)
# test conditions: phospho-Smad1 AlphaLISA, read-out: Cell Line (Cell Assay, IC50 class)
pIC50: −log10 of the molar value.
Would you kindly list pIC50 for each of these molecules?

Using the record for CCOC(=O)N1CCN(c2ccnc3[nH]c(-c4csc(C)n4)cc23)CC1 , report its pIC50. ≥ 7.00

Using the record for Cn1cc(-c2cc3c(N4CCN(C(=O)CC5CC5)CC4)ccnc3[nH]2)cn1 , report its pIC50. 6.30 to 7.00

Using the record for CC(C)(C#N)c1ccc(-c2cc3c(N4CCN(C(=O)OC5COC5)CC4)ccnc3[nH]2)nc1 , report its pIC50. ≥ 7.00

Using the record for Cc1c(-c2cnn(C)c2)[nH]c2nccc(N3CCN(C(=O)OC4CCC4)CC3)c12 , report its pIC50. ≥ 7.00

----------
# measured target: ALK2R206H (mutant ALK2, N-terminally tagged with GST) (Homo sapiens, UniProt Q04771, R206H)
# Sequence (Q04771 21-509 R206H): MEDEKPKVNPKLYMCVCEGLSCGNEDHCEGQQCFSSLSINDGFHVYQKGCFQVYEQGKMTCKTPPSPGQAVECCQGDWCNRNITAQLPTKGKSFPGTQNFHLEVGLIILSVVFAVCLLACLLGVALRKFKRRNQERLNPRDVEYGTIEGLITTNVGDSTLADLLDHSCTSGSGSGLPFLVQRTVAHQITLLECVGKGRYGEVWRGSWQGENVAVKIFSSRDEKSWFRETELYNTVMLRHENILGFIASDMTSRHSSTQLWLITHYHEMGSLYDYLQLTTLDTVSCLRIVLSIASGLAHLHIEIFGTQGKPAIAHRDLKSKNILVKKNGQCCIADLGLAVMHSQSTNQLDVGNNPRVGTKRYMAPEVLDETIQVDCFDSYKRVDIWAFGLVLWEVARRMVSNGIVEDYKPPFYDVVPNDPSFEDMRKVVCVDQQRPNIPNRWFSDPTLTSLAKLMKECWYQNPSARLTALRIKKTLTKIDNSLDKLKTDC
# measurement protocol: ALK binding assay (LANTHASCREEN TR-FRET competitive binding, displacement of Kinase Tracer 178)
# test conditions: read-out: Binding Assay (IC50 class)
# Experimental: Example 10 ALK Binding Assays Binding assays were conducted using the LANTHASCREEN® technology (ThermoFisher Scientific). LANTHASCREEN® is a competitive binding, displacement assay where the assumed steady state occupancy of the binding site is measured using a time-resolved, fluorescence energy transfer (TR-FRET) readout between a fluorescent tracer and Europium (Eu)-tagged antibody specific for the kinase or expression tag (e.g., GST) of interest. […]
measurement type: IC50

Using the record for COC1CC(OC(=O)N2CCN(c3ccnc4[nH]c(-c5cnn(C)c5)cc34)CC2)C1 (centres unmarked) , report its IC50. ≤ 10 nM

Using the record for Cn1cnc(-c2cc3c(N4CCN(C(=O)O[C@@H]5CCC5(F)F)CC4)ccnc3[nH]2)c1 , report its IC50. ≤ 10 nM

Using the record for Cc1nc(-c2cc3c(N4CCN(C(=O)O[C@H]5C[C@H](F)C5)CC4)ccnc3[nH]2)cs1 , report its IC50. ≤ 10 nM

Using the record for Cn1cc(-c2cc3c(N4CCN(C(=O)[C@@H]5CCCO5)CC4)ccnc3[nH]2)cn1 , report its IC50. 10 to 50 nM

Using the record for Cc1nc(-c2cc3c(N4CCN(C(=O)O[C@@H]5CC(F)(F)C5(F)F)CC4)ccnc3[nH]2)cn1C , report its IC50. ≤ 10 nM

Using the record for COc1cnc(-c2cc3c(N4CCN(C(=O)OC5COC5)CC4)ccnc3[nH]2)c(C#N)c1 , report its IC50. ≤ 10 nM

Using the record for Cn1cc(-c2cc3c(N4CCN(C(=O)OCC(F)F)CC4)ccnc3[nH]2)cn1 , report its IC50. ≤ 10 nM

Using the record for Cn1cnc(-c2cc3c(N4CCN(C(=O)OC5CC5)CC4)ccnc3[nH]2)c1 , report its IC50. ≤ 10 nM

Using the record for O=C(C1CC1)N1CCN(c2ccnc3[nH]c(-c4cccc(F)c4)cc23)CC1 , report its IC50. 10 to 50 nM

Using the record for CCOC(=O)N1CCN(c2ccnc3[nH]c(-c4cnn(C)c4C(F)F)cc23)CC1 , report its IC50. ≤ 10 nM

Using the record for O=C(C1CC1)N1CCN(c2ccnc3[nH]c(-c4ccc(OCCN5CCCC5)cc4)cc23)CC1 , report its IC50. ≤ 10 nM

Using the record for CCOC(=O)N1CCN(c2ccnc3[nH]c(-c4cnn(C)c4)c(C)c23)CC1 , report its IC50. ≤ 10 nM

Using the record for CCOC(=O)N1CCN(c2ccnc3[nH]c(-c4ccc(C5(O)CCOCC5)cn4)cc23)CC1 , report its IC50. ≤ 10 nM

Using the record for CCOC(=O)N1CCN(c2ccnc3[nH]c(-c4cnn(C)c4)cc23)CC1 , report its IC50. ≤ 10 nM

Using the record for N#Cc1ccc(-c2cc3c(N4CCN(C(=O)OC5COC5)CC4)ccnc3[nH]2)nc1 , report its IC50. ≤ 10 nM

Using the record for Cn1cc(-c2[nH]c3nccc(N4CCN(C(=O)O[C@H]5CCC5(F)F)CC4)c3c2C#N)cn1 , report its IC50. ≤ 10 nM

Using the record for CN(C)CCOc1ccc(-c2cc3c(N4CCN(C(=O)C5CC5)CC4)ccnc3[nH]2)cc1 , report its IC50. ≤ 10 nM

Using the record for Cc1ccccc1-c1cc2c(N3CCN(C(=O)C4CC4)CC3)ccnc2[nH]1 , report its IC50. > 50 nM

Using the record for Cn1cnc(-c2[nH]c3nccc(N4CCN(C(=O)OC5CC5)CC4)c3c2C#N)c1 , report its IC50. ≤ 10 nM

Using the record for CCc1nc(-c2cc3c(N4CCN(C(=O)OC5COC5)CC4)ccnc3[nH]2)cs1 , report its IC50. ≤ 10 nM

Using the record for CCOC(=O)N1CCN(c2ccnc3[nH]c(-c4ncccn4)cc23)CC1 , report its IC50. ≤ 10 nM

Using the record for CCOc1ccc(-c2cc3c(N4CCN(C(=O)C5CC5)CC4)ccnc3[nH]2)c(Cl)c1 , report its IC50. > 50 nM

Using the record for Cn1cc(-c2cc3c(N4CCN(C(=O)OCCC(C)(C)C)CC4)ccnc3[nH]2)cn1 , report its IC50. 10 to 50 nM

Using the record for CC(C)n1cnc(-c2cc3c(N4CCN(C(=O)OC5COC5)CC4)ccnc3[nH]2)c1 , report its IC50. ≤ 10 nM

Using the record for Cn1cc(-c2[nH]c3nccc(N4CCN(C(=O)O[C@H]5C[C@H](F)C5)CC4)c3c2F)cn1 , report its IC50. ≤ 10 nM

Using the record for Cn1cc(-c2cc3c(N4CCN(C(=O)OCC5CCC5)CC4)ccnc3[nH]2)cn1 , report its IC50. ≤ 10 nM

Using the record for Cn1cnc(-c2cc3c(N4CCN(C(=O)OC5COC5)CC4)ccnc3[nH]2)n1 , report its IC50. 10 to 50 nM

Using the record for CCOC(=O)N1CCN(c2ccnc3[nH]c(-c4cnn(C)c4C#N)cc23)CC1 , report its IC50. ≤ 10 nM

Using the record for Cn1cc(-c2cc3c(N4CCN(C(=O)OC5COC5)CC4)ccnc3[nH]2)c(Cl)n1 , report its IC50. ≤ 10 nM

Using the record for O=C(C1CC1)N1CCN(c2ccnc3[nH]c(-c4ccccc4F)cc23)CC1 , report its IC50. 10 to 50 nM

Using the record for CC(C)(O)c1ccc(-c2cc3c(N4CCN(C(=O)C5CC5)CC4)ccnc3[nH]2)cc1 , report its IC50. ≤ 10 nM

Using the record for CCOC(=O)N1CCN(c2ccnc3[nH]c(-c4csc(C)n4)cc23)CC1 , report its IC50. ≤ 10 nM
